SYSTEM_UNDER_TEST: T1, full-length human Notch1 expressed on the cell surface (human, UniProt P46531 19-2555)
T1 construct: whole, on cells; On U-2 OS cells stably overexpressing it (ELISAs, reporter cells); also called cell surface full-length human Notch1; native Notch1 receptor
ASSAY_SUMMARY: cell-based ELISA, U-2 OS cells expressing full-length human Notch1
Here, each record is paired with measured EC50 data.
I'd appreciate it if you wrote the number followed by its unit.

BINDER	EC50
humanized 438 VH1.1/VL1.8 (antibody, human IgG1, kappa, V domains shown, full chains (VH1.1)-hIgG1-3M and (VL1.8)-hkappa) VH: EVQLVESGGGLVQPGGSLRLSCAASGFTFSSFAMAWVRQAPGKGLEWVASISYGGADTYYRDSVKGRFTISRDNAKNSLYLQMNSLRAEDTAVYYCAKDLPYYGYTPFVMDAWGQGTLVTVSS VL: DIQMTQSPSSLSASVGDRVTITCRASQRINTDLHWYQQKPGKAPKVLIKFASQTISGVPSRFSGSGSGTDFTLTISSLQPEDFATYYCQQSNSWPYTFGQGTKLEIKR	0.203 nM
humanized 438 VH1.1/VL1.3 (antibody, human IgG1, V domains shown) VH: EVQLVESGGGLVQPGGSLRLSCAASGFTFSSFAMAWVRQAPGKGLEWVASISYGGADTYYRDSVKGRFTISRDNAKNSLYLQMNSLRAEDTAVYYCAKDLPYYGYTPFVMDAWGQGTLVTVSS VL: DIQLTQSPSSLSASVGDRVTITCRASQRINTDLHWYQQKPGKAPKLLIYFASQTISGVPSRFSGSGSGTDFTLTISSLQPEDFATYYCQQSNSWPYTFGQGTKLEIK	0.152 nM
humanized 438 VH1.0/VL1.1 (antibody, human IgG1, V domains shown) VH: EVQLVESGGGLVQPGGSLRLSCAASGFTFSSFAMAWVRQAPGKGLEWVASISYGGADTYYRDSVKGRFTISRDNAKNSLYLQMNSLRAEDTAVYYCARDLPYYGYTPFVMDAWGQGTLVTVSS VL: DIQLTQSPSSLSASVGDRVTITCRASQRINTDLHWYQQKPGKAPKVLIKFASQTISGVPSRFSGSGSGTDFTLTISSLQPEDFATYYCQQSNSWPYTFGQGTKLEIK	0.305 nM

Data request: Name the recorded EC50 for parental rat 351 (antibody, V domains shown, Rat monoclonal IgG from a hybridoma) VH: EVQLVESGGGLVQPGRSLKVSCLASGFTFSHYGMNWIRQAPGKGLDWVASISRSGSYIRYVDTVKGRFTVSRDIAKNTLYLQMTSLRSEDTALYYCAREGQFGDYFEYWGQGVMVTVSS VL: DIMLTQSPATLSVTPGERISLSCRASQKISTNLHWYQQKPNESPRILIKYASQTISGIPSRFSGSGSGTDFTLHINTVEPEDFSVYYCQQTNSWPLTFGSGTKLEIK .
Data returned: 0.1 nM

Data request: Consider the binder parental rat 438 (antibody, V domains shown, Rat monoclonal IgG from a hybridoma) VH: AVQLVESGGGLVQPGRSLKLSCTASGFTFSSFAMAWVRQAPTKGLEWVASISYGGADTYYRDSVKGRFTISRDNAKSSLYLQMDSLRSEDTSTYYCAKDLPYYGYTPFVMDAWGQGTSVTVSS VL: DIMLTQSPPTLSVTPGETISLSCRASQRINTDLHWYQQKPNESPRVLIKFASQTISGVPSRFSGSGSGTDFTLNINRVEPEDFSVYYCQQSNSWPYTFGAGTKLELK and give its measured EC50.
Data returned: 0.213 nM

Cited source: patent US20160002331A1
